So I've got a bunch of molecules here, and I need their Ki values.
tested.target: Carbonic anhydrase (Candida glabrata CBS 138)
Sequence (Q6FTL6 whole entry): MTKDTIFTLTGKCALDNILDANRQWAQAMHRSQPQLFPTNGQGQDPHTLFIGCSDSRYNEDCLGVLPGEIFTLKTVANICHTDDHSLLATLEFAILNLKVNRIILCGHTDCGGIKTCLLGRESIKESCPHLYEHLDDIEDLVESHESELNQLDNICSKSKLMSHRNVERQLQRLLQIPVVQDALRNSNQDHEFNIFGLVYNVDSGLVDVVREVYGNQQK
experiment: Inhibition of recombinant Candida glabrata beta carbonic anhydrase NCE103 expressed in Escherichia coli preincubated for 15 mins by stopped-flow CO2 hydration assay
Give bare numbers, in nM.

Answered cases to consult:
- CN1C(=O)/C(=N\c2ccc(S(N)(=O)=O)cc2)c2cc(F)ccc21: 32.4
- NS(=O)(=O)c1cccc(/N=C2\C(=O)Nc3ccc([N+](=O)[O-])cc32)c1: 23.1
- NS(=O)(=O)c1ccc(/N=C2\C(=O)Nc3ccc(OC(F)(F)F)cc32)cc1: 45.1
- Cc1ccc2c(c1)/C(=N/c1ccc(S(N)(=O)=O)cc1)C(=O)N2: 29.7
- NS(=O)(=O)c1ccc(/N=C2\C(=O)Nc3ccc(Cl)cc32)cc1: 38.2
- NS(=O)(=O)c1cccc(/N=C2\C(=O)Nc3ccc(F)cc32)c1: 45.1

Please state, for each entry, its recorded Ki.
1. NS(=O)(=O)c1ccc(/N=C2\C(=O)Nc3ccc(F)cc32)cc1
2. CN1C(=O)/C(=N\c2ccc(S(N)(=O)=O)cc2)c2cc([N+](=O)[O-])ccc21
3. NS(=O)(=O)c1ccccc1/N=C1\C(=O)Nc2ccc(F)cc21
4. NS(=O)(=O)c1cccc(/N=C2\C(=O)Nc3ccc(Cl)cc32)c1
5. Cc1ccc2c(c1)/C(=N/c1ccc(S(N)(=O)=O)cc1)C(=O)N2C
6. NS(=O)(=O)c1cccc(/N=C2\C(=O)Nc3ccccc32)c1
7. NS(=O)(=O)c1cccc(/N=C2\C(=O)Nc3ccc(OC(F)(F)F)cc32)c1
8. Cc1ccc2c(c1)/C(=N/c1ccccc1S(N)(=O)=O)C(=O)N2

1. 21.6
2. 16.3
3. 55.4
4. 50.1
5. 35.3
6. 85.1
7. 53.5
8. 62.3
